Examples of compounds with documented Power follow.
Assay: ex-vivo olfactory evaluation test on incubated sweat
Details: Table 5; 0.5% in incubated sweat; scale 0 to 10
Reply with the value as a number alone.

Sample answers from the record:
CCOC(=O)[C@@H](N)Cc1c[nH]c2ccccc12.Cl [Compound 1, L-tryptophan ethyl ester chlorhydride]: 3.3
CC(C)(C)OC(=O)[C@@H](N)Cc1c[nH]c2ccccc12.Cl: 4
N[C@@H](Cc1c[nH]c2ccccc12)C(=O)OCc1ccccc1: 4.3

In: Please look at this compound and report its Power: CCCCCCCCOC(=O)[C@@H](N)Cc1c[nH]c2ccccc12.Cl [Compound 6, Tryptophan octyl ester hydrochloride]
Out: 6.3
